assaySummary: qHTS for inhibitors of adenylyl cyclases using a fission yeast platform: a pilot screen against the NCATS LOPAC library (AID 1347410)
condition: S. pombe CHP2027, fbp1-GFP fluorescence, 18 h, yeast expressing mammalian AC9 and human GNAS; series mostly up to 57.5 µM
Calls of active or inactive are those of the source. The call rests on the fitted dose curve; in most records, active means well fitted curve in the direction sought with a large enough effect; inconclusive means small, poorly fitted or top-dose-only effect, or effect the other way, or another doubt; inactive means no such curve, though single readings can be large or run the other way.

compound | outcome
Cc1ccc(C(=O)Nc2ccc(S(=O)(=O)O)c3cc(S(=O)(=O)O)cc(S(=O)(=O)O)c23)cc1NC(=O)c1cccc(NC(=O)Nc2cccc(C(=O)Nc3cc(C(=O)Nc4ccc(S(=O)(=O)O)c5cc(S(=O)(=O)O)cc(S(=O)(=O)O)c45)ccc3C)c2)c1 | inactive
Clc1ccc(C(c2ccccc2Cl)C(Cl)Cl)cc1 (centres undefined) | inactive
Cc1ccc(-c2cc(C(F)(F)F)nn2-c2ccc(S(N)(=O)=O)cc2)cc1 | inactive
CCc1cccc2c3c([nH]c12)C(CC)(CC(=O)O)OCC3 (centres undefined) | inactive
OCCN1CCN(CCCN2c3ccccc3Sc3ccc(C(F)(F)F)cc32)CC1 | inactive
Cc1cn([C@H]2C=C[C@@H](CO)O2)c(=O)[nH]c1=O | inactive
CC(C)C(=O)Nc1ccc([N+](=O)[O-])c(C(F)(F)F)c1 | inactive
CN1CCN(CCCN2c3ccccc3Sc3ccc(Cl)cc32)CC1 | inactive
Cc1cnc(C(=O)NCCc2ccc(S(=O)(=O)NC(=O)NC3CCCCC3)cc2)cn1 | inactive

====

systemUnderTest: Hexokinase-4 (Homo sapiens) + Glucokinase regulatory protein (Homo sapiens) (UniProt P35557+Q14397)
Sequence (P35557 whole entry, looked up): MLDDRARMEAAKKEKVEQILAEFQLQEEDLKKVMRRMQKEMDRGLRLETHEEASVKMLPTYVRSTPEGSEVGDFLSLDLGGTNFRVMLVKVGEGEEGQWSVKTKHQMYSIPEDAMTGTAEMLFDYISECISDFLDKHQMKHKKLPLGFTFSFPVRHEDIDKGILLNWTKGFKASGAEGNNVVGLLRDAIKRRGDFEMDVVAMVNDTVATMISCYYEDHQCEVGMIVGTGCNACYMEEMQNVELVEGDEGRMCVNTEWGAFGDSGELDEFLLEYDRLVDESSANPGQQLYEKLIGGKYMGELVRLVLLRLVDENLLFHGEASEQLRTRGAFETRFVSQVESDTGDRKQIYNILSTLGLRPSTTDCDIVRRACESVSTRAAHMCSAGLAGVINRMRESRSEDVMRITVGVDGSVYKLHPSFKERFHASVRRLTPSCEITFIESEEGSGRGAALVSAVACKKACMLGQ
Sequence (Q14397 whole entry, looked up): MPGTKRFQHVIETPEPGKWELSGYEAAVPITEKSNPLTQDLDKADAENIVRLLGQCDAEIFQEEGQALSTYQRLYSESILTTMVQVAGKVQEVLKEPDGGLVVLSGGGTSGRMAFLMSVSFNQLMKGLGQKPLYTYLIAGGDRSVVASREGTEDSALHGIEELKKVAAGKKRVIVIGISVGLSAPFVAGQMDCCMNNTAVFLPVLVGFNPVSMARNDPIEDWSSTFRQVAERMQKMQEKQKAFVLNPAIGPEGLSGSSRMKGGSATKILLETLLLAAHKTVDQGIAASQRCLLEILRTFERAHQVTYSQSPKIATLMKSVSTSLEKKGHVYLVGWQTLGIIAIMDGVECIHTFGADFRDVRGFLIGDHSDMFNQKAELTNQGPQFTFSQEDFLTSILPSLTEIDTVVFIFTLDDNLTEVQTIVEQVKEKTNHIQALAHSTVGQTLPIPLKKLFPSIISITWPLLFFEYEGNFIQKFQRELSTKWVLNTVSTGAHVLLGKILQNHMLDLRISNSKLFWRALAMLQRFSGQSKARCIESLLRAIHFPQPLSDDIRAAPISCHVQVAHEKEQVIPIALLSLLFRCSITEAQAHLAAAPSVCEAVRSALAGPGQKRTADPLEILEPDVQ
assaySummary: qHTS assay for inhibitors of recombinant human GCK-GKRP interaction: Diaphorase-coupled assay (AID 743205)
condition: G6PDH/diaphorase resorufin fluorescence; series mostly up to 57.5 µM
Activity calls are given as the source filed them. The call rests on the fitted dose curve; in most records, active means well fitted curve in the direction sought with a large enough effect; inconclusive means small, poorly fitted or top-dose-only effect, or another doubt; inactive means no such curve, though single readings can be large or run the other way.
experimentalEndpoint: outcome

compound | result
Cc1cnc(C(=O)NCCc2ccc(S(=O)(=O)NC(=O)NC3CCCCC3)cc2)cn1 | inactive
CC1COc2c(N3CCN(C)CC3)c(F)cc3c(=O)c(C(=O)O)cn1c23 (configuration not stated) | inactive
CC(CCc1ccc(O)cc1)NCCc1ccc(O)c(O)c1 (configuration not stated) | inactive
O=c1c(O)c(-c2ccc(O)c(O)c2)oc2cc(O)cc(O)c12 | inactive
CC(C)C(=O)Nc1ccc([N+](=O)[O-])c(C(F)(F)F)c1 | inactive
N[C@@H](Cc1c[nH]c2ccc(O)cc12)C(=O)O | inactive
COc1nc(C)nc(Cl)c1NC1=NCCN1 | inactive
CN1CCC(=C2c3ccccc3C=Cc3ccccc32)CC1 | inactive
NC12CC3CC(CC(C3)C1)C2 | inactive
CN(C)CCOC(c1ccccc1)c1ccccc1 | inactive
Cc1cc(C(C)(C)C)cc(C)c1CC1=NCCN1 | inactive
COc1ccccc1OCCNCC(O)COc1cccc2[nH]c3ccccc3c12 (configuration not stated) | inactive

====

systemUnderTest: Glutaminase kidney isoform, mitochondrial (Homo sapiens)
assaySummary: qHTS for Inhibitors of Glutaminase (GLS): LOPAC Validation (AID 624146); further: nearly all actives have a fitted effect of over 60% in size
condition: glutaminase enzyme activity inhibition; series mostly up to 46.1 µM
Inconclusive results are not listed. Active and inactive are the calls of the source. The call rests on the fitted dose curve; in most records, active means well fitted inhibition curve with a large enough effect; inconclusive means small, poorly fitted or top-dose-only effect; inactive means no such curve, though single readings can be large or run the other way.
Labels: YES for active, NO for inactive

compound | label
CC(C(=O)O)c1cccc(C(=O)c2ccccc2)c1 (stereo unspecified) | NO
CN1CCN2c3ccccc3Cc3ccccc3C2C1 (stereo unspecified) | NO
CN(C)c1nc(N(C)C)nc(N(C)C)n1 | NO
O=C1c2c(O)ccc(O)c2C(=O)c2c(NCCNCCO)ccc(NCCNCCO)c21 | YES
O=C(c1ccc(F)cc1)C1CCN(CCn2c(=O)[nH]c3ccccc3c2=O)CC1 | NO
Nc1ccn([C@H]2CC[C@@H](CO)O2)c(=O)n1 | NO

====

assaySummary: qHTS profiling for inhibitors of Plasmodium falciparum (HB3) proliferation (AID 743324)
condition: Plasmodium falciparum HB3 blood-stage proliferation; at 28.7 µM (top of the series)
Exam item: assign Criterion met to entries whose remaining proliferation (% of control), lower = more inhibition is below 1% and Criterion not met to entries at or above 1%. Note that a value of exactly 1% receives Criterion not met.

compound | label
CS(=O)(=O)CCNCc1ccc(-c2ccc3ncnc(Nc4ccc(OCc5cccc(F)c5)c(Cl)c4)c3c2)o1 | Criterion not met
Cc1ccc(-c2cc(C(F)(F)F)nn2-c2ccc(S(N)(=O)=O)cc2)cc1 | Criterion not met
CN(C)C(=N)N=C(N)N | Criterion not met
CC1(CN2CCC(n3c(=O)[nH]c4ccccc43)CC2)OCc2ccccc2-n2cccc21 (stereo not given) | Criterion met
C[C@H]1c2cccc(O)c2C(O)=C2C(=O)[C@]3(O)C(O)=C(C(N)=O)C(=O)[C@@H](N(C)C)[C@@H]3[C@@H](O)[C@@H]21 | Criterion not met

====

assaySummary: Drug repurposing screens with cells derived from glioblastoma tumor samples (AID 1345199); further: nearly all actives have a fitted effect of over 40% in size
condition: GBM patient neurospheres viability, ATP luminescence, 48 h; at 45.9 µM (top of the series); tumour line B
Results filed as inconclusive are left out.
Note to self: class labels come from recorded activity, negative = cell killing, ranges listed here: low: < -20%; medium: ≥ -20% and < -10%; high: ≥ -10%

molecule | label
CN(Cc1cnc2nc(N)nc(N)c2n1)c1ccc(C(=O)N[C@@H](CCC(=O)O)C(=O)O)cc1 | high
O=C1N(c2ccccc2)c2ccccc2C1(Cc1ccncc1)Cc1ccncc1 | high
COc1cc2nc(N3CCN(C(=O)C4COc5ccccc5O4)CC3)nc(N)c2cc1OC (stereo unspecified) | medium
CC(COc1ccccc1)N(CCCl)Cc1ccccc1 (stereo unspecified) | low
NCCS(=O)(=O)O | low
CC(=O)OCC(CCn1cnc2cnc(N)nc21)COC(C)=O | medium
CC(C)(C)C(=O)Oc1ccc(S(=O)(=O)Nc2ccccc2C(=O)NCC(=O)O)cc1 | medium
CC(C)Cc1ccc(C(C)C(=O)O)cc1 (stereo unspecified) | medium
Clc1ccc2c(c1)C(N1CCNCC1)=Nc1ccccc1O2 | low
O=C(C1CCCCC1)N1CC(=O)N2CCc3ccccc3C2C1 (stereo unspecified) | medium
CC(C)NCC(O)COc1ccc(CCOCC2CC2)cc1 (stereo unspecified) | medium

====

assaySummary: Cell Viability - LYMP1-002 - Assay at 24 hr (AID 993)
condition: LYMP1-002 lymphoblastoid cells viability; series mostly up to 92.2 µM
Active and inactive are the calls of the source. Calls follow the shape of the dose curve; as a rule, active = well fitted cell-killing curve with a large enough effect; inconclusive = small, poorly fitted or top-dose-only effect; inactive = flat fitted curve, though single readings scatter.

compound | outcome
NS(=O)(=O)c1cc2c(cc1Cl)NCNS2(=O)=O | inactive
COc1ccc2[nH]cc(CCNC(C)=O)c2c1 | inactive
COc1ccc2c(c1)c(CC(=O)O)c(C)n2C(=O)c1ccc(Cl)cc1 | inactive
N[C@@H](Cc1c[nH]c2ccc(O)cc12)C(=O)O | inactive
Nc1c2c(nc3ccccc13)CCCC2 | inactive
CC(C)C(=O)Nc1ccc([N+](=O)[O-])c(C(F)(F)F)c1 | inactive
Cn1c(=O)c2c(ncn2C)n(C)c1=O | inactive
CC(C)NCC(O)c1ccc(O)c(O)c1 (stereo unspecified) | inactive
CCC1(c2ccccc2)C(=O)NCNC1=O | inactive
O=c1c(-c2ccc(O)cc2)coc2cc(O)cc(O)c12 | inactive
Cn1c(=O)c2[nH]cnc2n(C)c1=O | inactive

====

systemUnderTest: N-terminal Xaa-Pro-Lys N-methyltransferase 1 (Homo sapiens) (UniProt Q9BV86)
Sequence (Q9BV86 whole entry, looked up): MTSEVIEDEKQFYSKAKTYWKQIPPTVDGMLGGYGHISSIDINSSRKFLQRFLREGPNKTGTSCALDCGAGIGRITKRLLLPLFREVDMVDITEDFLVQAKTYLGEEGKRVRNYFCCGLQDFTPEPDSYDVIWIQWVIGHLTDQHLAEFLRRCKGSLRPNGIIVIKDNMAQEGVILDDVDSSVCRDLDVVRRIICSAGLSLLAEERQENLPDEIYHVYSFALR
assaySummary: qHTS Assay for Inhibitors of N-terminal methyltransferase 1 (NTMT1): LOPAC validation of the NTMT1 SAHH-coupled ThioGlo3 Assay (AID 1347143);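 further: SAH from peptide methylation measured as thiol fluorescence via SAHH coupling and ThioGlo3; nearly all actives have a fitted effect of over 70% in size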; further: potency means the concentration at half of the fitted maximal effect
condition: recombinant NTMT1, SAHH-coupled ThioGlo3 fluorescence; series mostly up to 114 µM
Inconclusive results are not listed. The source made the active and inactive calls. The call rests on the fitted dose curve; in most records, active means well fitted inhibition curve with a large enough effect; inconclusive means small, poorly fitted or top-dose-only effect; inactive means no such curve, though single readings can be large or run the other way.
experimentalEndpoint: Potency

compound | result
CC12CC3CC(C)(C1)CC(N)(C3)C2 | inactive
Fc1ccc([C@@H]2CCNC[C@H]2COc2ccc3c(c2)OCO3)cc1 | inactive
Nc1nnc(-c2cccc(Cl)c2Cl)c(N)n1 | inactive
CCOC(=O)Nc1ccc(NCc2ccc(F)cc2)nc1N | 50.1 µM (active)
COc1ccc(CCN(C)CCCC(C#N)(c2ccc(OC)c(OC)c2)C(C)C)cc1OC (stereo unspecified) | inactive
NS(=O)(=O)c1cc2c(cc1Cl)NCNS2(=O)=O | inactive

====

systemUnderTest: Arylsulfatase A (Homo sapiens) (UniProt P15289)
Sequence (P15289 whole entry, looked up): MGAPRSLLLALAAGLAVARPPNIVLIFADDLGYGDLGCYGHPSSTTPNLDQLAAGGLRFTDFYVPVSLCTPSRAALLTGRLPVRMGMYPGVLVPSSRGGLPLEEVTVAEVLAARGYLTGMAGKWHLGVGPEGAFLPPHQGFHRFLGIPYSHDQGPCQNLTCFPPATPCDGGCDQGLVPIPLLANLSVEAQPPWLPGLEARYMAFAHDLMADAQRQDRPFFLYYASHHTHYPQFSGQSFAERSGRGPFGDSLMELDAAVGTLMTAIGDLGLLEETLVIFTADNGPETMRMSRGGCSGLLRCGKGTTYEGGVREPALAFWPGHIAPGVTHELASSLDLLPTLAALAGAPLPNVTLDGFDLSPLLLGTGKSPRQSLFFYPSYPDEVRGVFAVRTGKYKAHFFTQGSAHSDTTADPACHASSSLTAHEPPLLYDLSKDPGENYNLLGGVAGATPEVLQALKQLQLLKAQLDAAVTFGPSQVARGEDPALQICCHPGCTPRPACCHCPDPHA
assaySummary: qHTS screen for enhancers of Arylsulfatase A (ASA1): LOPAC Validation Assay (AID 720538)
condition: ASA enzyme activity, LOPAC qHTS enhancer assay; series mostly up to 57.5 µM
Inconclusive results are not listed. Active and inactive are the calls of the source. The call rests on the fitted dose curve; in most records, active means well fitted activation curve with a large enough effect; inconclusive means small, poorly fitted or top-dose-only effect; inactive means no such curve, though single readings can be large or run the other way.

compound | outcome
Cc1cnc(C(=O)NCCc2ccc(S(=O)(=O)NC(=O)NC3CCCCC3)cc2)cn1 | inactive
NC12CC3CC(CC(C3)C1)C2 | inactive
CC(C)C(=O)Nc1ccc([N+](=O)[O-])c(C(F)(F)F)c1 | inactive
O=C1Cc2cc(CCN3CCN(c4nsc5ccccc45)CC3)c(Cl)cc2N1 | inactive
CC#C[C@]1(O)CC[C@H]2[C@@H]3CCC4=CC(=O)CCC4=C3[C@@H](c3ccc(N(C)C)cc3)C[C@@]21C | inactive
COc1nc(C)nc(Cl)c1NC1=NCCN1 | inactive
COc1ccc2[nH]cc(CCNC(C)=O)c2c1 | inactive
Nc1c2c(nc3ccccc13)CCCC2 | inactive
CN1CCC(=C2c3ccccc3C=Cc3ccccc32)CC1 | inactive
COc1cc2nc(N(C)CCCNC(=O)C3CCCO3)nc(N)c2cc1OC (stereo unspecified) | inactive
O=C(c1ccc(OCCN2CCCCC2)cc1)c1c(-c2ccc(O)cc2)sc2cc(O)ccc12 | inactive

meta.source: PubChem BioAssay (NCATS)
